System: KM12 colon
Experiment: NCI tumour cell line growth inhibition, 48 h; in the data active means GI50 below about 0.43 µM; inactive means the rest
Valid outcomes are listed here; reply with one: 1.0 (active), 0.0 (inactive)

O=c1[nH]c(-c2cccc(F)c2)cc2cc(F)ccc12 = 1.0
CC[C@]1(O)C[C@H]2CN(CCc3c([nH]c4ccccc34)C(C(=O)OC)(c3cc4c(cc3OC)N(C)[C@H]3[C@@](O)(C(=O)OC)[C@H](OC(C)=O)[C@]5(CC)[C@@H]6C[C@@H]6CN6CC[C@]43[C@@H]65)C2)C1 (stereo partly specified) = 1.0
CCCCNCCCNCCCNC(=O)c1csc(-c2csc(CCNC(=O)C(NC(=O)C(C)C(O)C(C)NC(=O)C(NC(=O)c3nc(C(CC(N)=O)NCC(N)C(N)=O)nc(N)c3C)C(OC3OC(CO)C(O)C(O)C3OC3OC(CO)C(O)C(OC(N)=O)C3O)c3cnc[nH]3)C(C)O)n2)n1 (stereo unspecified) = 0.0
O=C(Nc1nc(-c2c[nH]c3ccccc23)cs1)c1n[nH]c(=O)c2ccccc12 = 0.0
COC(=O)/C=C/c1cc(OC(C)=O)c2c(c1)C(C(=O)OC)C(c1ccc(OC(C)=O)c(OC(C)=O)c1)O2 (stereo unspecified) = 1.0

Prompt: Could you check what this test reported for CCN(Cc1c(F)cccc1OC)c1ccc(CO)c(Cl)c1 ?
Response: 0.0

Prompt: Could you check what this test reported for O=C(Nc1ncc(Cc2cccc(C(F)(F)F)c2)s1)c1ccc2c(c1)OCCO2 ?
Response: 1.0

Prompt: Could you check what this test reported for CCSc1nc(N=Cc2ccccc2O)c2cn[nH]c2n1 ?
Response: 0.0

Prompt: Could you check what this test reported for COc1nc(=O)n(C2C=CC(=O)O2)cc1F (stereo unspecified) ?
Response: 0.0

Prompt: Could you check what this test reported for O=c1cccc(C#CC#C[C@@H]2O[C@H]2CO)o1 ?
Response: 0.0

Prompt: Could you check what this test reported for C=CC12CCN(CC1)C(C(O)c1ccnc3ccc(OC)cc13)C2 (stereo unspecified) ?
Response: 0.0

====

Tested on: OVCAR-5 ovarian
Test: NCI tumour cell line growth inhibition, 48 h
Entries and their measured TGI follow.

Below, each entry is followed by its recorded TGI result.
CN(C)CCNC(=O)Cc1ccccc1Nc1c(Cl)cccc1Cl = 24.2 µM
Cc1cccc(NC2=C(Cl)C(=O)c3nc(C)ccc3C2=O)c1 = 3.61 µM
CCOc1c(OC)cc(-c2nc3n(n2)C(=O)C(CC)S3)cc1OC (stereo not given) = > 10 µM
CC(C(=O)COCc1ccccc1)P1(=O)OC(C)(C)CN1C(C)(C)C (stereo not given) = > 100 µM
c1ccc(C2=NOC(c3ccccc3)N2C23CC4CC(CC(C4)C2)C3)cc1 (stereo not given) = > 10 µM
Cc1ccsc1/C=N/Nc1cnccn1 = > 100 µM

// sample O=S(=O)(OI(OI(OS(=O)(=O)C(F)(F)F)c1ccccc1)c1ccccc1)C(F)(F)F , its TGI was > 100 µM

// sample CNc1nc(N)nc(Nc2ccc(I)cc2)c1N=O , its TGI was > 100 µM

// sample COc1ccc(Cl)cc1NC(=O)c1ccc(NC2=C(Cl)C(=O)N(Cc3ccccc3)C2=O)cc1 , its TGI was > 100 µM

// sample C=C(C)[C@@H]1CC[C@]2(CN)CC[C@]3(C)[C@H](CC[C@@H]4[C@@]5(C)CCCNC(C)(C)[C@@H]5CC[C@]43C)[C@@H]12 , its TGI was 3.11 µM
